# System: Hsp70 level in Neuro-2a cells
# EXPERIMENTAL DETAILS: Hsp70 level analysis by Western blot in Neuro-2a cells
# Type: cell-based, mouse
# TEST PARAMETERS: compound 10 µM 1 h, then PQ 500 µM 24 h
REPORTED PROPERTY: increase of Hsp70 level in PQ-treated cells (%)
Please respond with the number in % and leave the unit unwritten.

GIVEN SMILES	READING
CC(C)=CCC[C@@H](C)[C@H]1CC[C@@]2(C(=O)O)C3=C(CC[C@]12C)[C@@]1(C)CCC(=O)C(C)(C)[C@@H]1CC3	56

Measured on Hsp70 level in Neuro-2a cells, `CC(C)=CCC[C@@H](C)[C@H]1CC[C@]23C(=O)O[C@]4(CC[C@]12C)[C@]31O[C@H]1C[C@H]1C(C)(C)[C@@H](O)CC[C@@]14C` has a documented increase of Hsp70 level in PQ-treated cells of 43

Record for `CC(C)=CCC[C@@H](C)[C@H]1CC[C@@]2(C(=O)O)C3=C(CC[C@]12C)[C@@]1(C)CCC(=O)[C@@H](C)[C@@H]1CC3` under target or system Hsp70 level in Neuro-2a cells: increase of Hsp70 level in PQ-treated cells reported as 26

Hey, Hsp70 level in Neuro-2a cells data for `CC(=O)O[C@H]1CC[C@@]2(C)[C@@H](C[C@@H]3O[C@]34[C@]23CC[C@]2(C)[C@@H]([C@H](C)CCC=C(C)C)CC[C@@]42C(=O)O3)C1(C)C` : increase of Hsp70 level in PQ-treated cells came out at 62

###

# Tested on: PQ-treated Neuro-2a cells
# EXPERIMENTAL DETAILS: Neurite outgrowth estimation in PQ-treated Neuro-2a cells
# Format: cell-based, mouse
# TEST PARAMETERS: compound 10 µM 1 h, then PQ 500 µM 24 h
increase in the average number of neurites per cell reference
Number in %, nothing else.

A selection of reference data follows.
GIVEN SMILES	EXPERIMENTAL TARGET	READING
CC(=O)O[C@H]1CC[C@@]2(C)[C@@H](C[C@@H]3O[C@]34[C@]23CC[C@]2(C)[C@@H]([C@H](C)CCC=C(C)C)CC[C@@]42C(=O)O3)C1(C)C	PQ-treated Neuro-2a cells	16
CC(C)=CCC[C@@H](C)[C@H]1CC[C@@]2(C(=O)O)C3=C(CC[C@]12C)[C@@]1(C)CCC(=O)C(C)(C)[C@@H]1CC3	PQ-treated Neuro-2a cells	27
CC(=O)O[C@H]1CC[C@]2(C)C3=C(CC[C@H]2C1(C)C)[C@]1(C(=O)O)CC[C@H]([C@H](C)CCC=C(C)C)[C@@]1(C)CC3	PQ-treated Neuro-2a cells	20
CC(C)=CCC[C@@H](C)[C@H]1CC[C@@]2(C(=O)O)C3=C(CC[C@]12C)[C@@]1(C)CCC(=O)[C@@H](C)[C@@H]1CC3	PQ-treated Neuro-2a cells	17

Next, consider the following compound.
Notebook: `CC(C)=CCC[C@@H](C)[C@H]1CC[C@]23C(=O)O[C@]4(CC[C@]12C)[C@]31O[C@H]1C[C@H]1C(C)(C)[C@@H](O)CC[C@@]14C` , increase in the average number of neurites per cell read as 12
